Measured values drawn from patent US11192877B2 for this set.

I'd be grateful if you could share measured IKZF2 % protein reduction at 10 µM for these entries.
# targetOrSystem: IKZF2 (Helios) (Homo sapiens, UniProt Q96SW2+Q9UKS7)
# Sequence (Q9UKS7 whole entry): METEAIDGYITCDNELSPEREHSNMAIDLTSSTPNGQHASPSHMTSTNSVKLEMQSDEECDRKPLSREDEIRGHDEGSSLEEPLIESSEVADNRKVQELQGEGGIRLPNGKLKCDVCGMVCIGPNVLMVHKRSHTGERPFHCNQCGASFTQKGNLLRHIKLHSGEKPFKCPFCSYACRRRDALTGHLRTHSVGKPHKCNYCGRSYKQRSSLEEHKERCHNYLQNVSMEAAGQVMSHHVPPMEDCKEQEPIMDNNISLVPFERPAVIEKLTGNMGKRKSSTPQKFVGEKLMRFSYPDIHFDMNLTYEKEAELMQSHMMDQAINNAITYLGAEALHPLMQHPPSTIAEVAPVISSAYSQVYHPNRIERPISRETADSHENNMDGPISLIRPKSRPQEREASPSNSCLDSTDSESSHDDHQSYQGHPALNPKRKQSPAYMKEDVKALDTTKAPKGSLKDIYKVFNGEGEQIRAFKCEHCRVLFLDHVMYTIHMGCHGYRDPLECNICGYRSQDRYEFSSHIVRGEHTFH
# Sequence (Q96SW2 whole entry): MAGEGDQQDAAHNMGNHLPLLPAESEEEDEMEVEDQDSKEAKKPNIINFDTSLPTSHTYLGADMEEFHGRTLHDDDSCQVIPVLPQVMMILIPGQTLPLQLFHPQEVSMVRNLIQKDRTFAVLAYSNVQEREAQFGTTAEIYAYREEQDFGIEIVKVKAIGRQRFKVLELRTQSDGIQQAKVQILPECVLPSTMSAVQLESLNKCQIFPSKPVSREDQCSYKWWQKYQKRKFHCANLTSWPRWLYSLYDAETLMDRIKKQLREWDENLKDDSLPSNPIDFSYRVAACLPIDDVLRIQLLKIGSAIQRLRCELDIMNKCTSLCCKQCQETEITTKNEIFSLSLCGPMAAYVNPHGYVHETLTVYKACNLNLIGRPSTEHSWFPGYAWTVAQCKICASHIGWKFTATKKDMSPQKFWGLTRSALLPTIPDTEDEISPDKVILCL
# Sequence (Q16531 whole entry partner): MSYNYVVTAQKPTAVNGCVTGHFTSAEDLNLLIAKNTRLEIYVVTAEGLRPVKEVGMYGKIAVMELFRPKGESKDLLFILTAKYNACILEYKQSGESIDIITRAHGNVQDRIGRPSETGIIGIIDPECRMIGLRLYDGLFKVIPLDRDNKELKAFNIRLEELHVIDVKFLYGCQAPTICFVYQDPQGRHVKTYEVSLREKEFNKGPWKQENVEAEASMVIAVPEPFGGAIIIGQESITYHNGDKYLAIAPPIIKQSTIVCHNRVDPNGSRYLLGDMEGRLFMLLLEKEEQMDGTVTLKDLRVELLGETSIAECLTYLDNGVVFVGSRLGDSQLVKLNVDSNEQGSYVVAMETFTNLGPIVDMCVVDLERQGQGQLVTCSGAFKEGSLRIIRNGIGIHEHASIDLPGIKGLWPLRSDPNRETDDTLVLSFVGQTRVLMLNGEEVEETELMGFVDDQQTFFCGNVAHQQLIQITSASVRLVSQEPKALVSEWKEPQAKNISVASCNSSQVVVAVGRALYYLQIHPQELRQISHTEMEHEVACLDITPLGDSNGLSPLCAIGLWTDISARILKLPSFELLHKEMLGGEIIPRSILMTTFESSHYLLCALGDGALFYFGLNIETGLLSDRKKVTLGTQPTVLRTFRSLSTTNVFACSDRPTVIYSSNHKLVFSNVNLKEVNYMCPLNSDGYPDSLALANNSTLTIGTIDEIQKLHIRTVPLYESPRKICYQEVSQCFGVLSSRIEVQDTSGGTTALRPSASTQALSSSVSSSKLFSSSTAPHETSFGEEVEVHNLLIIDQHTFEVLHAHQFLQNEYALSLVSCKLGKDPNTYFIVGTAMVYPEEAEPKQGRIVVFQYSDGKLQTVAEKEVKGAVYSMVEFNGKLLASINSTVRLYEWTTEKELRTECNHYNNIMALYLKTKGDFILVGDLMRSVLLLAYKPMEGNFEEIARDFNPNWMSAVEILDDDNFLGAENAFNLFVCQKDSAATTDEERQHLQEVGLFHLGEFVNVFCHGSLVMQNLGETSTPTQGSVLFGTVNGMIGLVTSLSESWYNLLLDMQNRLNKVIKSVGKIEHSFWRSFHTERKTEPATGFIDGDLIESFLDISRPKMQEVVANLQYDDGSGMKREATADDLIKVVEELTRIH
# assayComment: Prolabel quantification of IKZF2 protein levels in 293GT cells
# Assay type: cell-based
# studyConditions: 24 h, Pro-label assay, 293GT cells, 10 μM, read-out: IKZF2 % protein reduction at 10 μM, 24 h
Write the answer as a number in %, unit excluded.

Need IKZF2 % protein reduction at 10 µM, item O=C1CCC(N2Cc3cc(O[C@H]4CCC[C@@H]4N4CC(Oc5ccccc5Cl)C4)ccc3C2=O)C(=O)N1 (some centres unmarked)
92

Try the molecule O=C1CCC(N2Cc3cc(O[C@H]4CCC[C@@H]4N4CCc5ncccc5C4)ccc3C2=O)C(=O)N1 (some centres unmarked)
39

Try the molecule CC1(CN[C@H]2CCCCC[C@@H]2Oc2ccc3c(c2)CN(C2CCC(=O)NC2=O)C3=O)COC1 (some centres unmarked)
81

Try the molecule CC1(CN[C@H]2CCCC[C@@H]2Oc2ccc3c(c2)CN(C2CCC(=O)NC2=O)C3=O)COC1 (some centres unmarked)
79

Try the molecule CO[C@H]1CC[C@H](CN(C)[C@H]2CCC[C@@H]2Oc2ccc3c(c2)CN(C2CCC(=O)NC2=O)C3=O)CC1 (some centres unmarked)
74

Try the molecule COC1(C)CCN([C@H]2CCCC[C@@H]2Oc2ccc3c(c2)CN(C2CCC(=O)NC2=O)C3=O)CC1 (some centres unmarked)
57

Try the molecule CN(Cc1ccccc1)[C@H]1CCCC[C@@H]1Oc1ccc2c(c1)CN(C1CCC(=O)NC1=O)C2=O (some centres unmarked)
57

Try the molecule CCN(CC)[C@H]1COC[C@@H]1Oc1ccc2c(c1)CN(C1CCC(=O)NC1=O)C2=O (some centres unmarked)
11

###

# targetOrSystem: IKZF2 (Helios) (Homo sapiens, UniProt Q96SW2+Q9UKS7)
# assayComment: Prolabel quantification of IKZF2 protein levels in 293GT cells
# Assay type: cell-based
# studyConditions: 24 h, Pro-label assay, 293GT cells, 10 μM, read-out: IKZF2 % protein reduction at 10 μM, 24 h
Binning scheme for IKZF2 % protein reduction at 10 µM: bottom bin = under 60%, middle bin = from 60% up to 80%, top bin = 80% and over

Into which bin does this compound go? O=C1CCC(N2Cc3cc(O[C@H]4CCOC[C@@H]4NCc4ccccc4)ccc3C2=O)C(=O)N1 (some centres unmarked)
bottom bin

Try the compound O=C1CCC(N2Cc3cc(O[C@H]4CCCC[C@@H]4N4CC(Oc5cccnc5)C4)ccc3C2=O)C(=O)N1 (some centres unmarked)
top bin

Try the compound O=C1CCC(N2Cc3cc(O[C@H]4CCC[C@@H]4OCc4ccccc4)ccc3C2=O)C(=O)N1 (some centres unmarked)
bottom bin

Try the compound O=C1CCC(N2Cc3cc(O[C@@H]4CCC[C@H]4O)ccc3C2=O)C(=O)N1 (some centres unmarked)
bottom bin

Try the compound O=C1CCC(N2Cc3cc(OC4CCCC4N4CCC5(CCOC5)CC4)ccc3C2=O)C(=O)N1 (single isomer, unassigned)
top bin

Try the compound O=C1CCC(N2Cc3cc(O[C@H]4CCC[C@@H]4N4CCCCC4)ccc3C2=O)C(=O)N1 (some centres unmarked)
top bin

Try the compound O=C1CCC(N2Cc3cc(O[C@H]4CCCC[C@@H]4N4CC(Oc5cccc(F)c5)C4)ccc3C2=O)C(=O)N1 (some centres unmarked)
top bin

Try the compound CC1(C#N)CCN([C@H]2CCC[C@@H]2Oc2ccc3c(c2)CN(C2CCC(=O)NC2=O)C3=O)CC1 (some centres unmarked)
top bin

Try the compound COC1CN([C@H]2CCCCC[C@@H]2Oc2ccc3c(c2)CN(C2CCC(=O)NC2=O)C3=O)C1 (some centres unmarked)
top bin

Try the compound N[C@@H]1CCCC[C@@H]1Oc1ccc2c(c1)CN(C1CCC(=O)NC1=O)C2=O (some centres unmarked)
bottom bin

Try the compound O=C1CCC(N2Cc3cc(O[C@H]4CCC[C@@H]4N4CCOCC4)ccc3C2=O)C(=O)N1 (some centres unmarked)
bottom bin

Try the compound CC1(CN[C@H]2CCCC[C@@H]2Oc2ccc3c(c2)CN(C2CCC(=O)NC2=O)C3=O)CCOCC1 (some centres unmarked)
middle bin

Try the compound O=C1CCC(N2Cc3cc(O[C@H]4CCCC[C@@H]4NC4CCC(F)(F)CC4)ccc3C2=O)C(=O)N1 (some centres unmarked)
top bin

Try the compound O=C1CCC(N2Cc3cc(O[C@H]4CCC[C@@H]4N(CC4CC4)CC4CC4)ccc3C2=O)C(=O)N1 (some centres unmarked)
top bin

Try the compound O=C1CCC(N2Cc3cc(O[C@H]4CCCCC[C@@H]4NCC4CCOCC4)ccc3C2=O)C(=O)N1 (some centres unmarked)
middle bin

Try the compound O=C1CCC(N2Cc3cc(O[C@H]4CCCC[C@@H]4N4CC(OCC(F)F)C4)ccc3C2=O)C(=O)N1 (some centres unmarked)
top bin

Try the compound O=C1CCC(N2Cc3cc(O[C@H]4CCCCC[C@@H]4NCC45CC(F)(C4)C5)ccc3C2=O)C(=O)N1 (some centres unmarked)
middle bin

Try the compound N[C@H]1CCC[C@@H]1Oc1ccc2c(c1F)CN(C1CCC(=O)NC1=O)C2=O (some centres unmarked)
bottom bin

Try the compound O=C1CCC(N2Cc3cc(O[C@H]4CCC[C@@H]4N4C[C@H]5COC[C@H]5C4)ccc3C2=O)C(=O)N1 (some centres unmarked)
top bin

Try the compound CO[C@H]1CC[C@H](CN[C@H]2CCCCC[C@@H]2Oc2ccc3c(c2)CN(C2CCC(=O)NC2=O)C3=O)CC1 (some centres unmarked)
top bin

Try the compound CO[C@H]1CCCC[C@@H]1Oc1ccc2c(c1)CN(C1CCC(=O)NC1=O)C2=O (some centres unmarked)
bottom bin

Try the compound CN(C)[C@H]1c2ccccc2C[C@@H]1Oc1ccc2c(c1)CN(C1CCC(=O)NC1=O)C2=O (some centres unmarked)
bottom bin

Try the compound O=C1CCC(N2Cc3cc(O[C@H]4CCCC[C@@H]4NCc4ccccn4)ccc3C2=O)C(=O)N1 (some centres unmarked)
middle bin

Try the compound O=C1CCC(N2Cc3cc(O[C@H]4CCC[C@@H]4N4Cc5ccncc5C4)ccc3C2=O)C(=O)N1 (some centres unmarked)
middle bin
